Where do these numbers come from? They come from PubChem BioAssay (NCI).

Tested on: SK-MEL-2 melanoma
Test: NCI-60 one-dose screen, 48 h
Settings: 10 µM unless noted
The panel holds about 83,000 compounds, 20% with a hit somewhere; the sample as a whole holds those more often. Calls of active or inactive are those of the source. The calls were made as follows: active = growth percent below 10; inactive = the rest.
Outcomes you can answer with include only these: active, inactive

Consider the worked cases shown below.
Each compound tested received a call. Report the one for CC(C)COc1nc2c(c(=O)n(C)c(=O)n2C)n1C .
inactive

Each compound tested received a call. Report the one for CC(C)(C)CC(C)(C)NC(=O)Nc1ncccc1OCc1ccccc1 .
inactive

Each compound tested received a call. Report the one for C#CCOc1cccc(Nc2ncnc3cc(NC(=O)C=C)ccc23)c1 .
inactive

Each compound tested received a call. Report the one for O=C(N(c1ccccc1)c1ccccc1)n1cc(I)c2nc(Cl)nc(Cl)c21 .
inactive

Each compound tested received a call. Report the one for Cc1ccc(/C=C2\COc3ccc(O)cc3C2=O)cc1 .
inactive

Next:
Each compound tested received a call. Report the one for C=C1C(=O)O[C@H]2[C@H]1CC/C(COC(=O)c1cc3ccccc3s1)=C\CC[C@@]1(C)O[C@@H]21 .
active

Each compound tested received a call. Report the one for CCOc1ccc(NC(=O)CSc2oc(-c3ccccc3)nc2S(=O)(=O)c2ccc(C)cc2)cc1 .
inactive

Each compound tested received a call. Report the one for COc1c(B(O)O)cccc1-c1cc(C)c2c(ccc3[nH]ncc32)n1 .
inactive

Each compound tested received a call. Report the one for CCCCCC(/C=N\NC(=S)N/N=C/C(=C/c1ccccc1)CCCCC)=C\c1ccccc1 .
inactive

Each compound tested received a call. Report the one for CC1CCN(S(=O)(=O)c2ccc(S(=O)(=O)N3CCCC(c4nc5c(nnn5Cc5cccc(Cl)c5)c(=O)[nH]4)C3)cc2)CC1 (configuration not stated) .
inactive

Each compound tested received a call. Report the one for CC/C(=C(/c1ccc(Cl)cc1)c1ccc(OCCN2CCCCC2)cc1)c1ccc(OC)cc1 .
inactive

Each compound tested received a call. Report the one for CCN(CC)CC(O)COc1c(Br)c(Br)c(Br)c2c1OC(C)(C)C2 (configuration not stated) .
inactive

---

Tested on: BT-549 breast
Test: NCI-60 one-dose screen, 48 h (100 = growth as untreated, 0 = no growth, -100 = all killed)
Conditions: 10 µM unless noted
This is part of a sample that, as a whole, favours compounds with a hit. Of some 83,000 tested, about 20% had one in any assay.
recorded metric: growth (%)
State just the number; it will be interpreted in %.

Reported growth for CSc1nnc(-c2cc3c([nH]c4ccccc43)c(-c3cccc(O)c3)n2)n1-c1ccccc1 : what is it?
37.6

Reported growth for COCCNC(=O)Nc1ccc2nc(-c3cccs3)c(-c3cccs3)nc2c1 : what is it?
94.4

Reported growth for Clc1cc(Cl)c(Cl)c(-c2nnc(SCc3ccncc3Br)o2)c1 : what is it?
99

---

System: SN12C renal
Assay: NCI-60 one-dose screen, 48 h
Conditions: 10 µM unless noted
About 83,000 compounds went through this panel and 20% of them were active in at least one assay; those are over-represented in the sample as a whole. Activity calls are given as the source filed them. The calls were made as follows: active = growth percent below 10; inactive = the rest.
Outcomes you can answer with include only these: yes for active, no for inactive

Consider the worked cases shown below.
Each compound tested received a call. Report the one for CC1CN(S(=O)(=O)c2oc(-c3ccc(Cl)cc3)nc2C#N)CC(C)O1 (centres undefined) .
no

Each compound tested received a call. Report the one for C#COc1cccc(Nc2c(C#N)cnc3ncc(NC(=O)CCl)cc23)c1 .
no

Each compound tested received a call. Report the one for COc1ccc(C2=C(Br)C(=O)c3nc(C)ccc3C2=O)cc1 .
no

Each compound tested received a call. Report the one for CCN1C(=S)N(c2ccccc2)C2NC(=S)N(/N=C/C=C/c3ccccc3OC)C21 (centres undefined) .
no

Each compound tested received a call. Report the one for Cc1ccc(-c2nc(N3CCCNCC3)c3oc(-c4ccccc4)nc3n2)cc1 .
yes

Next:
Each compound tested received a call. Report the one for COc1cc2ncnc(Nc3ccc(F)c(Cl)c3)c2cc1OCC(=O)N1CCN(c2ccccc2)CC1 .
no

Each compound tested received a call. Report the one for CCN(C)S(=O)(=O)Nc1cccc(Nc2ncnc3cc(NC(=O)CCl)ccc23)c1Cl .
yes

Each compound tested received a call. Report the one for CC(C)(Sc1cc(C(C)(C)C)c(OC(=O)CCCC(=O)O)c(C(C)(C)C)c1)Sc1cc(C(C)(C)C)c(OC(=O)CCCC(=O)O)c(C(C)(C)C)c1 .
no

Each compound tested received a call. Report the one for C=C1C(=O)O[C@H]2[C@H]1CC/C(COC(=O)/C=C\C(=O)NCc1ccc(Cn3c(=O)sn(CCI)c3=O)cc1)=C\CC[C@@]1(C)O[C@@H]21 .
no

---

Tested on: SR leukemia
Test: NCI-60 one-dose screen, 48 h
Details: 10 µM unless noted
The panel holds about 83,000 compounds, 20% with a hit somewhere; the sample as a whole holds those more often. Activity calls are given as the source filed them. The calls were made as follows: active = growth percent below 10; inactive = the rest.
Outcomes you can answer with include only these: t = active, f = inactive

Each molecule tested received a call. Report the one for CN(C)Cc1ccc(O)c(C(=O)O)c1 .
f

Each molecule tested received a call. Report the one for COC(=O)c1nc(-c2ccccc2)oc1S(=O)(=O)Cc1ccccc1 .
t

Now look at this entry.
Each molecule tested received a call. Report the one for COc1cc2c(c(OC)c1OC)CCC(c1cccc(C(=O)Nc3ccc(C#N)cc3)c1)O2 (stereo not drawn) .
f

---

Test system: K-562 leukemia
Experiment: NCI-60 one-dose screen, 48 h (100 = growth as untreated, 0 = no growth, -100 = all killed)
Settings: 10 µM unless noted
Procedure: Cells are grown in 96 well plates and exposed to the test compound for 48 hours. Compounds are tested at a single concentration, which is 10^-5 M for most compounds. The reported endpoint is percent growth (GI% or GIPRCNT), where numbers from 0 - 100% represent growth inhibition, and numbers from -100% - 0 represent cell death. For example, a value of 40 represents 60% growth inhibition. A value of 0 means no net growth occurred over the course of the experiment. […]
Compounds without any hit were thinned out: in the full panel of roughly 83,000, 20% have a hit.
Checkbox rule: growth lower than 60% = 1; growth not lower than 60% = -1.

Consider the worked cases shown below.
Given O=C(Nc1ccc(OS(=O)(=O)c2ccc(F)cc2)cc1)C1CCCCCC1 , is recorded growth strictly lower than 60%?
1

Given COc1cc2c(c(OC)c1OC)CCC(c1cccc(C(=O)Nc3cccc(Cl)c3)c1)O2 (stereo not given) , is recorded growth strictly lower than 60%?
1

Given Cc1ccc2c(n1)C(=O)C(Br)=C(CC(C)C)C2=O , is recorded growth strictly lower than 60%?
1

Given CC1=C2[C@@H](CC1)[C@]1(C)O[C@@](C(C)C)(C[C@H]1OC(=O)[C@H](C)O)[C@H]2OC(=O)/C=C/c1ccccc1 , is recorded growth strictly lower than 60%?
-1

Now look at this entry.
Given Nc1nc2ccc(-c3nc4ccc5[nH]ncc5c4c4c3CCCC4)cc2s1 , is recorded growth strictly lower than 60%?
-1

---

Test system: SNB-19 CNS
Assay: NCI-60 one-dose screen, 48 h (100 = growth as untreated, 0 = no growth, -100 = all killed)
Settings: 10 µM unless noted
Compounds without any hit were thinned out: in the full panel of roughly 83,000, 20% have a hit.
recorded metric: growth (%)
State just the number; it will be interpreted in %.

Reported growth for c1ccc(-c2oc(-c3ccccc3)c(CN3CCCCC3)c2CN2CCCCC2)cc1 : what is it?
44.5

Next:
Reported growth for Cc1cc(=O)n(C(=O)Nc2ccccc2Cl)c2cc(O)ccc12 : what is it?
97

Reported growth for CC(=O)O[C@H]1CC2CCC3C(CC[C@@]4(C)C3C[C@H]([N+]3(C)CCCCC3)[C@@H]4OC(C)=O)[C@@]2(C)C[C@@H]1N1CCCCC1 (stereo partly drawn) : what is it?
100

Reported growth for Cc1[nH]c(C(=O)Nc2ccccc2OC2CCNCC2)c(Cl)c1Cl : what is it?
33.4

Reported growth for COCCNC(=O)Nc1ccc2nc(-c3cccs3)c(-c3cccs3)nc2c1 : what is it?
95.5

Reported growth for CCOC(=O)c1cc(C(=O)c2cc(OC)c(OC)c(OC)c2)n2ncccc12 : what is it?
38.9

Reported growth for COCCOc1cc2ncnc(N3CCN(c4cc(S(C)(=O)=O)c(C)cc4Cl)CC3)c2cc1OCCOC : what is it?
96.8

Reported growth for O=C(NCCNc1nccc(Nc2ccc(S(=O)(=O)Nc3ccccn3)cc2)n1)c1cccc([N+](=O)[O-])c1 : what is it?
112
